Provenance of the data: ChEMBL document CHEMBL3430912

system: Trypanosoma brucei brucei; experiment: GSK_TCAKS: pIC50 Trypanosoma brucei viability assay using luminiscence. Assay plates (1536-well) were prepared. T. brucei cultures were harvested and counted in a CASY cell counter. A parasite suspension was prepared at a final concentration of 5 * 10^4 cells/mL in complete HMI9 medium and 6uL was dispensed to all wells containing compounds using a Multidrop Combi dispenser. 6uL of HMI9 media with 0.4% DMSO were dispensed to control columns. Plates were incubated for 24 h at 37C, 5% CO2 then tempered for 10 min at room temperature. ATP content was quantified by adding 4 uL of CellTiter-Glo Reagent (Promega) according to the manufacturer's instructions. Luminescence was measured using a ViewLux.; format: functional, organism-based; conditions: Lister 427, CASY
Measured pIC50 accompanies every entry in the list below.
Friendly reminder that pIC50 comes from taking -log10 of the concentration in mol/L.

**Query** Would you kindly share the measured pIC50 for `COc1ccc(C(=O)[C@H]2C[C@@H]2CN(Cc2ccccn2)Cc2ccccn2)cc1` ?
**Result** 4.80

**Query** Would you kindly share the measured pIC50 for `O=[N+]([O-])c1ccc(-c2nnn(-c3cccnc3)n2)o1` ?
**Result** 6.30

**Query** Would you kindly share the measured pIC50 for `COCCn1c(-c2ccc3c(c2)OCO3)cnc1NCc1ccccc1OC` ?
**Result** 4.60

----------
tested on: Trypanosoma cruzi; assay: GSK_TCAKS: pIC50 Trypanosoma cruzi Imaging: Infected Cells. […] Cells were then washed once with PBS before infection. T. cruzi trypomastigotes, collected at days 5 to 8 after infection from LLC-MK2 parasite infected cultures, were allowed to swim out for 4h at 37C from a centrifuged pellet (2,500 rpm/10 min/room temperature). Trypomastigotes were then collected and counted in a CASY Cell Counter. Trypomastigotes, in supplemented DMEM, were added to H9c2 cultures in a multiplicity of infection of 1 and incubated for 18 h. Cells were washed once with PBS before incubation of the infected H9c2 monolayer with trypsin (Life-Technologies) to detach cells from the flask. Cells were counted in a CASY Cell Counter using a 150 um capillary and their density set at 5 * 10^4 cells per mL in supplemented assay DMEM. Infected H9c2 were dispensed into 384-well poly-lysine coated assay plates at 50uL per well using a Multidrop Combi dispenser. After seeding them, the plates were incubated at 37C, 5% CO2 for 72h. Cultures were then fixed and stained by addition of 50 uL of a solution containing 8% formaldehyde and 4 uM DRAQ5 DNA dye (BioStatus, UK) per well. […] Five images were collected per well for reliable statistical analysis. Automated image analysis was performed with a script developed on Acapella High Content Imaging and Analysis Software (PerkinElmer). Output: percentage of infected cells per well as a second infection marker.; type: functional, organism-based, Rattus norvegicus; details: H9c2, 4 h
Measured pIC50 accompanies every entry in the list below.
Friendly reminder that pIC50 comes from taking -log10 of the concentration in mol/L.

These recorded examples may help you get a feel for the data.
| compound | pIC50 |
| --- | --- |
| N#Cc1ccccc1S(=O)(=O)N1CCN(C(=O)CNC(=O)c2ccc3c(c2)OCO3)CC1 | 6.00 |
| COc1ccc(CN2CCCCC2c2nc(-c3cccnc3)no2)cc1 (centres undefined) | 6.10 |

**Query** Would you kindly share the measured pIC50 for `Cc1nn2c(=O)c3c([nH]c2c1-c1ccc(Cl)cc1)CCCC3` ?
**Result** 6.00

**Query** Would you kindly share the measured pIC50 for `O=[N+]([O-])c1ccc(-c2nnn(-c3ccc(Cl)cc3)n2)o1` ?
**Result** 6.10

----------
system: Trypanosoma cruzi; test: GSK_TCAKS: pIC50 Trypanosoma cruzi Imaging: Infected Cells. […] Cells were then washed once with PBS before infection. T. cruzi trypomastigotes, collected at days 5 to 8 after infection from LLC-MK2 parasite infected cultures, were allowed to swim out for 4h at 37C from a centrifuged pellet (2,500 rpm/10 min/room temperature). Trypomastigotes were then collected and counted in a CASY Cell Counter. Trypomastigotes, in supplemented DMEM, were added to H9c2 cultures in a multiplicity of infection of 1 and incubated for 18 h. Cells were washed once with PBS before incubation of the infected H9c2 monolayer with trypsin (Life-Technologies) to detach cells from the flask. Cells were counted in a CASY Cell Counter using a 150 um capillary and their density set at 5 * 10^4 cells per mL in supplemented assay DMEM. Infected H9c2 were dispensed into 384-well poly-lysine coated assay plates at 50uL per well using a Multidrop Combi dispenser. After seeding them, the plates were incubated at 37C, 5% CO2 for 72h. Cultures were then fixed and stained by addition of 50 uL of a solution containing 8% formaldehyde and 4 uM DRAQ5 DNA dye (BioStatus, UK) per well. […] Five images were collected per well for reliable statistical analysis. Automated image analysis was performed with a script developed on Acapella High Content Imaging and Analysis Software (PerkinElmer). Output: percentage of infected cells per well as a second infection marker.; format: functional, organism-based, Rattus norvegicus; settings: H9c2, 4 h
Measured pIC50 accompanies every entry in the list below.
Friendly reminder that pIC50 comes from taking -log10 of the concentration in mol/L.

These recorded examples may help you get a feel for the data.
| smiles entry | observable | result |
| --- | --- | --- |
| COc1cccc(Nc2cc(C)nc(-c3ccccn3)n2)c1 | pIC50 | 4.90 |
| COc1ccccc1CNc1cc(C2CC2)nc(-c2nccn2C)n1 | pIC50 | 6.10 |
| O=C(COc1ncnc2cc([N+](=O)[O-])ccc12)NC(=O)NC1CCCCC1 | pIC50 | 6.00 |

Now consider a different molecule.
**Query** Form field - read-out: pIC50; system: Trypanosoma cruzi; submitted item: `O=C(Nc1ccccc1)Nc1nc(-c2ccccn2)cs1`
**Result** 6.00

----------
Measured IC50 accompanies every entry in the list below.
system: NIH3T3; test: GSK_TCAKS: pIC50 NIH 3T3 cell line viability assay using luminiscence. Tissue culture surface treated assay plates (1536-well) were used. […] The 100% cells survival control was determined exposing the host-cells to a 0.5% DMSO concentration, whereas the 100% toxicity control was achieved by seeding the cells in presence of Amphotericin B at 50uM. Plates were incubated for four days at 37C, 5% CO2. The assay readout was developed by addition of 5uL of CellTiter-Glo Reagent following the manufacturer's instructions. Luminiscence was measured using a ViewLux.; format: functional, cell-based; settings: Mus musculus, NIH3T3, 96 h

| molecule | target desc | IC50 |
| --- | --- | --- |
| CCN(CC)S(=O)(=O)c1ccc(C(=O)Nc2cc(C)nn2-c2nc(C)c(C)c(=O)[nH]2)cc1 | NIH3T3 | > 50.1 µM |
| O=S(=O)(NCC(c1cccnc1)N1CCN(c2ccc(F)cc2)CC1)c1cccs1 (stereo not drawn) | NIH3T3 | > 50.1 µM |

Now consider a different molecule.
**Query** Would you kindly share the measured IC50 for `O=c1ccn(-c2ccc([N+](=O)[O-])cc2Cl)c2ccc(F)cc12` ?
**Result** > 50.1 µM

----------
assay: GSK_TCAKS: pIC50 HepG2 human cell line viability assay using luminiscence. […] Seeding density was checked to ensure that new mono-layers were not more than 50% confluent at the time of harvesting. Cell suspension was added to 500 mL of the same medium at a final density of 1.2 * 10^5 cells/mL. This cell suspension was dispensed (25 uL, 3000 cells per well) into 384-well clear-bottom plates using a Multidrop Combi dispenser. Prior to addition of the cell suspension, the screening compounds (250 nL) were pre-dispensed into the plates with an Echo liquid handler. Plates were incubated for 48 h at 37C, 5% CO2. After incubation, plates equilibrated at room temperature for 30 min before proceeding to develop the luminescent signal. The signal developer, CellTiter-Glo Reagent, was allowed to equilibrate at room temperature for 30 min and added to the plates (25uL per well) using a Multidrop Combi dispenser. Plates were left for 10 min at room temperature for stabilization and then read using a ViewLux.; type: toxicity, cell-based
observable: IC50 at 48 h (µM)
Kindly answer with a numeric value in µM, unit omitted.

These recorded examples may help you get a feel for the data.
| smiles entry | result |
| --- | --- |
| CN1CCN(c2nc(-c3ccc(Cl)cc3)c3c(N)n(C)nc3n2)CC1 | 79.4 |
| Cc1cccc(Nc2nc(-c3ccccn3)cs2)n1 | 39.8 |

Now consider a different compound.
**Query** Would you kindly share the measured IC50 at 48 h for `CCCc1nc2nc(N)nc(N)c2cc1CC` ?
**Result** 20

----------
Measured pIC50 accompanies every entry in the list below.
tested on: Leishmania donovani; experiment: GSK_TCAKS: pIC50 Leishmania donovani Imaging: THP-1 Host Macrophages. Assay plates (384-well) were prepared by adding 250nL of compound to each well. For single shot assay, the final compound concentration was 5 uM. […] Automated image analysis was performed with a script developed on Acapella High Content Imaging and Analysis Software (PerkinElmer). Output: THP-1 cell count were reported for each well.; format: functional, organism-based, Homo sapiens
Friendly reminder that pIC50 comes from taking -log10 of the concentration in mol/L.

These recorded examples may help you get a feel for the data.
| smiles entry | pIC50 |
| --- | --- |
| COc1ccnc2[nH]cc(-c3cc(C(=O)N[C@H](CO)c4ccccc4)co3)c12 | 6.10 |
| CN(C)S(=O)(=O)c1ccc(Cl)c(C(=O)Nc2nc(-c3ccccn3)cs2)c1 | 5.20 |

**Query** Would you kindly share the measured pIC50 for `NC(=O)c1ccccc1Nc1nc(NC2CCCCC2)nc2[nH]ccc12` ?
**Result** 5.00
